Listing of recorded RP-LC retention time by entry.
- assay_explanation: gradient 5% acetonitrile 3 min, to 50% in 2 min, to 85% in 15 min, held 3 min, 100 µL/min
- study_conditions: column: Zorbax Extend-C18 2.1 x 50 mm; eluents: water / acetonitrile, 0.1% formic acid
Quick note: give the figure in s, leave out the unit.

[[record]]
molecule = "Cn1cc(-c2ccncc2)cc1C(=O)NCc1ccc(F)c(Cl)c1"
readout_kind = "RP-LC retention time"
measured_value = 664

[[record]]
molecule = "Cc1cccn2cc(-c3cccc(S(=O)(=O)N(C)C)c3)nc12"
readout_kind = "RP-LC retention time"
measured_value = 620

[[record]]
molecule = "Cc1c(C(=O)NC2CCCCCC2)sc2ncn(CC(=O)N3CC(C)CC(C)C3)c(=O)c12 (stereo not given)"
readout_kind = "RP-LC retention time"
measured_value = 1070


For the molecule CC1CCN(C(=O)C2=NN(Cc3ccc(F)cc3)c3ccccc3S2(=O)=O)CC1 , what RP-LC retention time is on record?
1000

Record request: RP-LC retention time value, item O=C(CN1C(=O)CCCc2cc(S(=O)(=O)N3CCCCC3)ccc21)NC1CCCCC1
880
